Source listed as patent US9062033B2.

# experimental-system: human OX1 receptors (Homo sapiens)
# Construct: expressed in transfected cells; host or cells: CHO cells
# Sequence (O43613 whole entry): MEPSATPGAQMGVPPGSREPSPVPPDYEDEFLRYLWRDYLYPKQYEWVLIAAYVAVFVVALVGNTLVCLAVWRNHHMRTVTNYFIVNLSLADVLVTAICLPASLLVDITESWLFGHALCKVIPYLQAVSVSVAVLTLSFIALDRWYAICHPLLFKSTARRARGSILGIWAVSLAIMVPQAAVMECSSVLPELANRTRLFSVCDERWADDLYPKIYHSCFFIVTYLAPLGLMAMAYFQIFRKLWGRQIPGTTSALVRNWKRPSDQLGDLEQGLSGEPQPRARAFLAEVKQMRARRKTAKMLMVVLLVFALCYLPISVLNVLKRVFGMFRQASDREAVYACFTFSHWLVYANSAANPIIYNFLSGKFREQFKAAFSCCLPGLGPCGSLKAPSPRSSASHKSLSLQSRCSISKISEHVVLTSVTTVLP
# assay-info: Antagonistic activity against human OX1 receptor, [Ca2+]i fluorimetry (Fluo-4NW) in transfected CHO cells activated with orexin-A
# Format: cell-based
# condition-parameters: CHO cells transfected with human recombinant OX1; orexin-A 3 nM; pKb = co-logarithm of apparent dissociation constant, modified Cheng Prusoff
observable: Kb (nM)

Here is how some compounds turned out for Kb.
compound	observable	recorded-measurement
Cc1cccc(C(=O)N2CC3(CC3)C[C@H]2CNc2ccc(C(F)(F)F)cn2)c1-c1ncccn1 [Compound 1c]	Kb	12.6
Cc1cc(C)nc(NC[C@@H]2CC3(CC3)CN2C(=O)c2nc(C)sc2-c2ccccc2)n1 [Compound 2f]	Kb	31.6

[A] Cc1ccc(-c2ncccn2)c(C(=O)N2CC3(CC3)C[C@H]2CNc2cc(C(F)(F)F)cc(C)n2)c1 [Compound 1m]
[B] Cc1ccc(-c2ncccn2)c(C(=O)N2CC3(CC3)C[C@H]2CNc2nccc3ncccc23)n1 [Compound 3p]
[C] Cc1ccc(-c2nccs2)c(C(=O)N2CC3(CC3)C[C@H]2CNc2ccc(C(F)(F)F)cn2)n1 [Compound 3q]
[D] Cc1ccc(OCc2ccc(F)cc2)c(C(=O)N2CC3(CC3)C[C@H]2CNc2ccc(C(F)(F)F)cn2)n1 [Compound 3m]
Let's sort these by Kb, smallest first. Go ahead? Dear reader, please state the labels in the requested order.
C, A, D, B

[P] Cc1ccc(-c2ncccn2)c(C(=O)N2CC3(CC3)C[C@H]2CNc2ccc(C(F)(F)F)cn2)c1 [Compound 1o]
[Q] O=C(c1ncccc1-c1ccccc1)N1CC2(CC2)C[C@H]1CNc1ccc(C(F)(F)F)cn1 [Compound E5]
[R] Cc1nc(C(=O)N2CC3(CC3)C[C@H]2CNc2ccc(C(F)(F)F)cn2)c(-c2ccccc2)s1 [Compound 2d]
Falling order of Kb, please. Dear reader, please state the labels in the requested order.
Q, R, P

[I] O=C(c1nc(C2CC2)ccc1-c1ccccc1)N1CC2(CC2)C[C@H]1CNc1ccc(C(F)(F)F)cn1 [Compound 3r]
[II] Cc1ccc(-c2ncccn2)c(C(=O)N2CC3(CC3)C[C@H]2CNc2ncc(Cl)cc2F)n1 [Compound 3c]
[III] Cc1nc(C(=O)N2CC3(CC3)C[C@H]2CNc2nc3ccccc3o2)c(-c2ccccc2)s1 [Compound 2b]
[IV] Cc1nc(C(=O)N2CC3(CC3)C[C@H]2CNc2nc3ccc(F)cc3s2)c(-c2ccccc2)s1 [Compound 2h]
[V] O=C(c1cc(Cl)ccc1-c1ncccn1)N1CC2(CC2)C[C@H]1CNc1ncc(C(F)(F)F)cn1 [Compound 1u]
Falling order of Kb, please. Dear reader, please state the labels in the requested order.
V, II, IV, I, III
